experiment: Mitotoxicity / Mitotox safety margin (therapeutic window); format: cell-based; details: highest safe dose/EC50
# Mito-Safety Index (highest safe dose/EC50) per entry
measured property: Mito-Safety Index (highest safe dose/EC50)

1) COC1CN([C@H]2COc3ccccc3[C@@H]2Nc2ncnc3[nH]c(C4CC4)cc23)C1
77.26
2) Fc1cccc2c1CC[C@@H](N1C[C@H]3COC[C@H]3C1)[C@@H]2Nc1ncnc2[nH]c(C(F)(F)F)cc12 (single isomer, unassigned)
44.10
3) c1ccc2c(c1)CC[C@H](N1C[C@H]3COC[C@H]3C1)[C@H]2Nc1ncnc2[nH]c(C3CC3)cc12
9.46
4) C[C@H]1CN([C@H]2CCc3ccccc3[C@@H]2Nc2ncnc3[nH]c(C4CC4)cc23)CCO1 (single isomer, unassigned)
53.66
5) COC1CN([C@H]2COc3ccccc3[C@@H]2Nc2ncnc3[nH]c(C(F)(F)F)cc23)C1 [EP-0040697]
15.51
6) C[C@@H]1CN([C@@H]2COc3cc(F)ccc3[C@H]2Nc2ncnc3[nH]c(C4CC4)cc23)C[C@H](C)O1
114.83
7) COC1CN([C@H]2CCc3ccccc3[C@@H]2Nc2ncnc3[nH]c(C(F)(F)F)cc23)C1 [EP-0040857]
116.38

----------
Tested on: HeLa MKYP cells
Assay: Human mitophagy assay (HeLa mKeima assay, FACS)
Assay type: cell-based
Settings: Homo sapiens, HeLa; read-out: Mitophagy induction EC50
Description: Briefly, HeLa MKYP cells were plated at 10,000 cells/well in 96 well plates along with compounds at various concentrations. Following 16 hrs of incubation, cells were treated with 1 uM FCCP/oligomycin for 6 hours, then analyzed via FACS for the presence of mitochondria in lysosomes (as determined by an emissions spectrum shift from the pH-sensitive mtKeima tag). […]
Mark class 1 only when EC50 stays strictly below 4 µM. Values equal to the cut-off are class 0.

1. [O-][S+]1CCN(C2CCc3ccccc3C2Nc2ncnc3[nH]c(C4CC4)cc23)CC1 (stereo not shown)
class 0
2. c1ccc2c(c1)OC[C@@H](N1C[C@H]3COC[C@H]3C1)[C@@H]2Nc1ncnc2[nH]c(C3CC3)cc12 (single isomer, unassigned)
class 1
3. FC(F)(F)c1cc2c(N[C@H]3c4ccccc4OC[C@@H]3N3CCOCC3)ncnc2[nH]1 (single isomer, unassigned) [EP-0040251]
class 0
4. CO[C@@H]1CCN([C@@H]2COc3ccccc3[C@H]2Nc2ncnc3[nH]c(C(F)(F)F)cc23)C1
class 0
5. [2H]C([2H])([2H])OC1CN([C@@H]2COc3ccccc3[C@H]2Nc2ncnc3[nH]c(C(F)(F)F)cc23)C1 (racemic)
class 0
6. c1ccc2c(c1)OC[C@H](N1C[C@H]3COC[C@H]3C1)[C@H]2Nc1ncnc2[nH]c(C3CC3)cc12 (single isomer, unassigned)
class 0
7. COC[C@H]1CCCN1[C@H]1COc2ccccc2[C@@H]1Nc1ncnc2[nH]c(C(F)(F)F)cc12 (single isomer, unassigned)
class 1
8. FC(F)(F)c1cc2c(N[C@@H]3c4ccccc4OC[C@@H]3C3CCCOC3)ncnc2[nH]1 (single isomer, unassigned)
class 1
9. C[C@@H]1CN([C@H]2COc3cc(F)ccc3[C@@H]2Nc2ncnc3[nH]c(C(F)(F)F)cc23)CCO1
class 0
10. COC1(C)CN(C2COc3ccccc3C2Nc2ncnc3[nH]c(C(F)(F)F)cc23)C1 (single isomer, unassigned)
class 0
11. CN1CCN([C@H]2CCc3ccccc3[C@@H]2Nc2ncnc3[nH]c(C(F)(F)F)cc23)CC1 (single isomer, unassigned)
class 1
12. FC(F)(F)c1cc2c(N[C@H]3c4ccccc4OC[C@@H]3N3CCC4(COC4)C3)ncnc2[nH]1 (single isomer, unassigned)
class 1
13. C[S@@](=N)(=O)C1CN(C2COc3ccccc3C2Nc2ncnc3[nH]c(C(F)(F)F)cc23)C1 (single isomer, unassigned)
class 0
14. Fc1ccc2c(c1)CC[C@H](N1CCOCC1)[C@H]2Nc1ncnc2[nH]c(C3CC3)cc12 (single isomer, unassigned)
class 1
15. Fc1ccc2c(c1)CC[C@H](N1C[C@H]3COC[C@@H]3C1)[C@H]2Nc1ncnc2[nH]c(C3CC3)cc12
class 1
16. c1ccc2c(c1)OC[C@@H](C1CCOCC1)[C@H]2Nc1ncnc2[nH]c(C3CC3)cc12
class 0
17. Fc1ccc2c(c1)CC[C@H](N1C[C@H]3COC[C@H]3C1)[C@H]2Nc1ncnc2[nH]c(C(F)(F)F)cc12 (single isomer, unassigned)
class 0
18. C[C@@H]1CN([C@H]2COc3cc(F)ccc3[C@@H]2Nc2ncnc3[nH]c(C4CC4)cc23)CCO1
class 1
19. C[C@@H]1CN([C@H]2COc3ccccc3[C@@H]2Nc2ncnc3[nH]c(C4CC4)cc23)C[C@H](C)O1 (single isomer, unassigned) [EP-0040750]
class 1
20. COC[C@H]1CCCN1[C@H]1COc2ccccc2[C@@H]1Nc1ncnc2[nH]c(C(F)(F)F)cc12
class 0
21. OC[C@@H]1CN([C@H]2COc3ccccc3[C@@H]2Nc2ncnc3[nH]c(C(F)(F)F)cc23)CCO1 (single isomer, unassigned)
class 0
22. Fc1cccc2c1CC[C@H](N1C[C@H]3COC[C@H]3C1)[C@H]2Nc1ncnc2[nH]c(C(F)(F)F)cc12 (single isomer, unassigned)
class 0
23. OC[C@@H]1CCCN1[C@H]1CCc2ccccc2[C@@H]1Nc1ncnc2[nH]c(C(F)(F)F)cc12 (single isomer, unassigned)
class 0
24. COCC1CC([C@H]2COc3ccccc3[C@@H]2Nc2ncnc3[nH]c(C(F)(F)F)cc23)C1 (stereo partly shown)
class 1
